procedureDetails: in vivo
conditionParameters: male, Sprague-Dawley, rat, iv, 15 mg/kg, MRT (mean residence time), male rats, brain, nirmatrelvir 15 mg/kg i.v. alone
propertyMeasured: MRT (h)
// return numeric value only (unit: h, not printed)

Consider CC(C)(C)[C@H](NC(=O)C(F)(F)F)C(=O)N1C[C@H]2[C@@H]([C@H]1C(=O)N[C@H](C#N)C[C@@H]1CCNC1=O)C2(C)C [Nirmatrelvir] . Its measured MRT is 1.53
